IC50 values by entry
EXPERIMENT_SUMMARY: Modulation of HIF1 expressed in HEK293 cells assessed as luciferase activity under hypoxic condition after 24 hrs by luminometer analysis
Assay type: cell-based
SETTINGS: HEK293, 24 h
API: value field is a number in µM; no unit string.

- MOLECULE_SMILES: "CC(C)=CCc1cc(/C=C/C(=O)O)ccc1O"
  IC50 / µM: 25.6

// next item, IC50 requested
Asked: Entry `CC(C)=CCc1cc(/C=C/C(=O)O)ccc1OC(=O)CCc1ccccc1` : reported IC50 = ?
Given back: 77.4

---

System: HEK293
EXPERIMENT_SUMMARY: Modulation of HIF1 expressed in HEK293 cells assessed as luciferase activity under hypoxic condition at 50 uM after 24 hrs by luminometer analysis relative to hypoxic control
Type: cell-based
Values of Ratio greater than or equal to 0.8 map to Criterion met; values below map to Criterion not met.

- MOLECULE: "O=C(O)/C=C/c1ccc(O)cc1 [COUMARIC ACID]"
  CLASS_NAME: "Criterion met"
- MOLECULE: "CC(C)(C)c1cc(/C=C/C(=O)O)cc(C(C)(C)C)c1O"
  CLASS_NAME: "Criterion not met"
- MOLECULE: "CC(C)=CCc1cc(/C=C/C(=O)O)cc(CC=C(C)C)c1O [ARTEPILLIN]"
  CLASS_NAME: "Criterion met"

Asked: Is Ratio at least 0.8? Consider `O=C(O)/C=C/c1ccc(OC(=O)CCc2ccccc2)cc1`
Given back: Criterion met

Asked: Is Ratio at least 0.8? Consider CC(C)=CCc1cc(/C=C/C(=O)O)ccc1OC(=O)CCc1ccccc1 [BACCHARIN]
Given back: Criterion not met

Asked: Is Ratio at least 0.8? Consider `C=CCc1cc(/C=C/C(=O)O)ccc1O`
Given back: Criterion met

Asked: Is Ratio at least 0.8? Consider CC(C)=CCc1cc(/C=C/C(=O)O)ccc1O [DRUPANIN]
Given back: Criterion not met

Reference source for all entries: ChEMBL document CHEMBL1817552
